Sourced from patent US20250332116A1

experiment-notes: MTS cytotoxicity assay
condition-parameters: African green monkey (Cercopithecus aethiops), Vero E6 cells
measured-endpoint: viability at 72 h, 2.4 μg mL^−1 (%)
Dear colleague, please return just the value in %, with no unit written.

Using known records, supply viability at 72 h, 2.4 μg mL^−1 for "CCC(CC)COC(=O)[C@H](C)N[P@](=O)(OC[C@H]1O[C@@](C#N)(c2ccc3c(N)ncnn23)[C@H](O)[C@@H]1O)Oc1ccccc1"
94.1
